method.summary: Inhibition of P-gp mediated multidrug resistance in human K562/4 cells assessed as sensitization of cells to doxorubicin by measuring reduction in cell viability preincubated with compound for 30 mins prior to 1 uM doxorubicin addition and measured after 72 hrs by MTT assay
Format: cell-based
What pIC50 was measured for each of the following?
Numbers only, as −log10 of the molar value.

COc1ccc(/C=C/c2cc(/C=C/c3ccc(OC)c(OC)c3)n(-c3ccc(C(=O)NCC(C)C)cc3)n2)cc1OC
6.40
CCNC(=O)c1ccc(-n2nc(/C=C/c3ccc(OC)c(OC)c3)cc2/C=C/c2ccc(OC)c(OC)c2)cc1
6.70

Kindly consider the entry below.
Exercise: Which pIC50 value is on record for COc1ccc(/C=C/c2cc(/C=C/c3ccc(OC)c(OC)c3)n(-c3ccc(C(=O)N4CCCC4)cc3)n2)cc1OC ?
Key: 6.30
